biological target: T1, recombinant cynomolgus monkey sclerostin (cynomolgus monkey); experiment: SPR
T1 construct: also called cyno sclerostin; Cyno sclerostin
Here the recorded Kd is given for each entry.
property_name: Kd (pM)

* AE10-6-AM5 (antibody, V domains shown, converted into IgG) VH: EVQLVQSGAEVKKPGASVKVSCKVSGYTLSELSMHWVRQAPGKGLEWMGGFDPEGGETIYAQKFQGRVTMTEDTSTDTAYMELSSLRSEDTAVYYCATDAGGYWYKFFQHWGQGTLVTVSS VL: QAVVTQEPSLTVSPGGTVTLTCGSSTGTVTIDHYPYWFQQKPGQAPRTLISDTDDKHSWTPARFSGSLLGGKAALTLSGAQPEDEAEYYCLLFYGGTVVFGGGTKLTVL | 1.5
* AE10-6-AM2 (antibody, V domains shown, converted into IgG; also called rHC + LC S4 clone 102) VH: EVQLVQSGAEVKKPGASVKVSCKVSGYTLTELSMHWVRQAPGKGLEWMGGFDPEAGETIYAQKFQGRVTMTEDTSTDTAYMELSSLRSEDTAVYYCATDGELYWYKFFQHWGQGTLVTVSS VL: QAVVTQEPSLTVSPGGTVTLTCGSSTGAVTIWHYPYWFQQKPGQAPRTLISDTNDKHSWTPARFSGSLLGGKAALTLSGAQPEDEAEYYCLLDYGGSFVFGGGTKLTVL | 7.1
* AE10-6-AM3 (antibody, V domains shown, converted into IgG) VH: EVQLVQSGAEVKKPGASVKVSCKVSGYTLTELSMHWVRQAPGKGLEWMGGFDPEDGETIYAQKFQGRVTMTEDTSTDTAYMELSSLRSEDTAVYYCATDSAGYWYKFFQHWGQGTLVTVSS VL: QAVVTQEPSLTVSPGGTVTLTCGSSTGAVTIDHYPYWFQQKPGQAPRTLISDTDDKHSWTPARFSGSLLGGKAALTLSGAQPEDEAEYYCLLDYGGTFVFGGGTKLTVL | 0.24
